Source: PubChem BioAssay (Tox21)

# run.description: p53 small molecule agonists, cell-based qHTS assay with human liver microsomes (AID 1963577);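 further: p53 response element beta-lactamase reporter cells with liver microsomes plus NADPH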
# condition.context: HCT-116 p53RE-bla with human liver microsomes, ratio, 16 h; series mostly up to 66 µM
Results filed as inconclusive are left out. The source made the active and inactive calls. The call rests on the fitted dose curve.
quantity.kind: outcome

[[record]]
compound = "COc1c(C(C)(C)C)cc([N+](=O)[O-])c(C)c1[N+](=O)[O-]"
result = "inactive"

[[record]]
compound = "CC(=O)C(C)(C)C"
result = "inactive"

[[record]]
compound = "CC(C)N1C(=O)c2ccccc2NS1(=O)=O"
result = "inactive"

[[record]]
compound = "O=C(Cl)CCl"
result = "inactive"

[[record]]
compound = "COC(=O)c1sccc1S(=O)(=O)NC(=O)Nc1nc(C)nc(OC)n1"
result = "inactive"

[[record]]
compound = "C[C@]12CCC(=O)C[C@@H]1CC[C@@H]1[C@@H]2CC[C@]2(C)[C@@H](O)CC[C@@H]12"
result = "inactive"

[[record]]
compound = "C1CCC(NC2CCCCC2)CC1"
result = "inactive"

[[record]]
compound = "CC1(C)CC(=O)CC(C)(C)N1[O]"
result = "inactive"

[[record]]
compound = "CCCCCCCCCCCCCC[P+](CCCCCC)(CCCCCC)CCCCCC"
result = "inactive"

[[record]]
compound = "Cc1ncc2n1-c1ccc(Cl)cc1C(c1ccccc1F)=NC2"
result = "inactive"

[[record]]
compound = "CCCC[N+]1(C)CCCC1"
result = "inactive"

[[record]]
compound = "C=CC=O"
result = "inactive"

[[record]]
compound = "OC(c1ccc(Cl)cc1)(c1cncnc1)c1ccccc1Cl (stereo not drawn)"
result = "inactive"


----------
# run.description: Nuclear factor erythroid 2-related factor 2/antioxidant responsive element (Nrf2/ARE) small molecule agonists: qHTS cell viability counter screen in human keratinocytes (AID 1919968); further: nearly all actives have a fitted effect of over 55% in size
# condition.context: KeratinoSens HaCaT ARE cells viability, CellTiter-Fluor, 24 h; series mostly up to 92.4 µM
Records with an inconclusive call do not appear. Active and inactive are the calls of the source. Calls follow the shape of the dose curve; as a rule, active = well fitted cell-killing curve with a large enough effect in the repeat runs; inconclusive = weak or mixed curves, or effect the other way; inactive = flat fitted curve, though single readings scatter.
Classes used: 1 (yes) = active, 0 (no) = inactive

[[record]]
compound = "Cc1cccc(N)c1N"
qualitative_label = "0 (no)"

[[record]]
compound = "CCCCOP(=O)(CCCC)OCCCC"
qualitative_label = "0 (no)"

[[record]]
compound = "O=P(OCC(Br)CBr)(OCC(Br)CBr)OCC(Br)CBr (centres undefined)"
qualitative_label = "0 (no)"

[[record]]
compound = "CC1=C(C(=O)Nc2ccccc2)SCCO1"
qualitative_label = "0 (no)"

[[record]]
compound = "Clc1cccc(Cl)c1"
qualitative_label = "0 (no)"

[[record]]
compound = "NCC(O)c1ccc(O)cc1 (centres undefined)"
qualitative_label = "0 (no)"

[[record]]
compound = "C/C=C/c1ccc2c(c1)OCO2"
qualitative_label = "0 (no)"

[[record]]
compound = "Clc1ccc(C(c2ccc(Cl)cc2)C(Cl)Cl)cc1"
qualitative_label = "1 (yes)"

[[record]]
compound = "CN1CC[C@]23c4c5ccc(O)c4O[C@H]2[C@@H](O)CC[C@H]3[C@H]1C5"
qualitative_label = "0 (no)"

[[record]]
compound = "O=c1ccc(=O)[nH][nH]1"
qualitative_label = "0 (no)"

[[record]]
compound = "CCCN(CCC)c1c([N+](=O)[O-])cc(C(C)C)cc1[N+](=O)[O-]"
qualitative_label = "0 (no)"

[[record]]
compound = "C[C@]12CCC(=O)C[C@@H]1CC[C@@H]1[C@@H]2CC[C@]2(C)[C@@H](O)CC[C@@H]12"
qualitative_label = "0 (no)"

[[record]]
compound = "CNC(=O)O/N=C/C(C)(C)S(C)=O (centres undefined)"
qualitative_label = "0 (no)"

[[record]]
compound = "CC(C)OS(C)(=O)=O"
qualitative_label = "0 (no)"

[[record]]
compound = "N#Cc1ccncc1"
qualitative_label = "0 (no)"

[[record]]
compound = "CCN(CC)N=O"
qualitative_label = "0 (no)"

[[record]]
compound = "Brc1ccc(Br)cc1"
qualitative_label = "0 (no)"

[[record]]
compound = "Cc1nn(-c2cc(NS(C)(=O)=O)c(Cl)cc2Cl)c(=O)n1C(F)F"
qualitative_label = "0 (no)"

[[record]]
compound = "CN(C)[C@@H]1C(=O)C(C(N)=O)=C(O)[C@@]2(O)C(=O)C3=C(O)c4c(O)cccc4[C@@](C)(O)[C@H]3C[C@@H]12"
qualitative_label = "0 (no)"

[[record]]
compound = "COS(=O)(=O)c1ccc(C)cc1"
qualitative_label = "0 (no)"

[[record]]
compound = "Cc1ccc([N+](=O)[O-])cc1C"
qualitative_label = "0 (no)"

[[record]]
compound = "COC(=O)Cc1ccccc1"
qualitative_label = "0 (no)"

[[record]]
compound = "Oc1ccc(Cl)cc1Cl"
qualitative_label = "0 (no)"

[[record]]
compound = "CCN(CC)C(=O)/C(Cl)=C(\\C)OP(=O)(OC)OC"
qualitative_label = "0 (no)"

[[record]]
compound = "Nc1ccc(Br)cc1"
qualitative_label = "0 (no)"

[[record]]
compound = "OCC(Cl)CCl (centres undefined)"
qualitative_label = "0 (no)"

[[record]]
compound = "N#CC(Br)Br"
qualitative_label = "0 (no)"

[[record]]
compound = "Nc1ccccc1C(=O)OCCc1ccccc1"
qualitative_label = "0 (no)"

[[record]]
compound = "CCOC(=O)CC(SP(=O)(OC)OC)C(=O)OCC (centres undefined)"
qualitative_label = "0 (no)"


----------
# measurement.target: 5-hydroxytryptamine receptor 2A (Homo sapiens)
# run.description: 5-hydroxytryptamine receptor 2A (HTR2A) small molecule agonists, cell-based qHTS assay (AID 1963587); further: nearly all actives have a fitted effect of over 30% in size; further: potency means the concentration at half of the fitted maximal effect
# condition.context: HTR2A-CHO cells, calcium flux fluorescence, agonist mode; series mostly up to 76.8 µM
Records with an inconclusive call do not appear. Activity calls are given as the source filed them. The call rests on the fitted dose curve.
quantity.kind: Potency

[[record]]
compound = "COC(=O)Nc1cccc(OC(=O)Nc2cccc(C)c2)c1"
quantity_kind = "Potency"
result = "inactive"

[[record]]
compound = "CCCCCCCCCCCCCCCl"
quantity_kind = "Potency"
result = "inactive"

[[record]]
compound = "CC(Oc1ccc(Cl)cc1Cl)C(=O)O (stereo not drawn)"
quantity_kind = "Potency"
result = "inactive"

[[record]]
compound = "NNC(=S)NN"
quantity_kind = "Potency"
result = "inactive"

[[record]]
compound = "CCOc1nc(F)cc2nc(S(=O)(=O)Nc3c(Cl)cccc3Cl)nn12"
quantity_kind = "Potency"
result = "inactive"

[[record]]
compound = "CC(C)c1ccc(NC(=O)N(C)C)cc1"
quantity_kind = "Potency"
result = "inactive"

[[record]]
compound = "CCCCc1c(C)nc(NCC)[nH]c1=O"
quantity_kind = "Potency"
result = "inactive"

[[record]]
compound = "O=[N+]([O-])c1cccc2ccccc12"
quantity_kind = "Potency"
result = "inactive"

[[record]]
compound = "Cc1cc(N=Nc2ccccc2C)ccc1N"
quantity_kind = "Potency"
result = "inactive"

[[record]]
compound = "OCC1CO1 (stereo not drawn)"
quantity_kind = "Potency"
result = "inactive"

[[record]]
compound = "N#Cc1cccnc1"
quantity_kind = "Potency"
result = "inactive"

[[record]]
compound = "COC(=O)c1ccccc1CS(=O)(=O)NC(=O)Nc1nc(OC)cc(OC)n1"
quantity_kind = "Potency"
result = "inactive"

[[record]]
compound = "CCOP(=S)(OCC)OP(=S)(OCC)OCC"
quantity_kind = "Potency"
result = "inactive"

[[record]]
compound = "CC(C)(C1CCC(O)CC1)C1CCC(O)CC1 (stereo not drawn)"
quantity_kind = "Potency"
result = "inactive"

[[record]]
compound = "C=CC(Cl)CCl (stereo not drawn)"
quantity_kind = "Potency"
result = "inactive"

[[record]]
compound = "C[Si](Cn1cncn1)(c1ccc(F)cc1)c1ccc(F)cc1"
quantity_kind = "Potency"
result = "inactive"

[[record]]
compound = "COC(=O)c1cncn1C(C)c1ccccc1 (stereo not drawn)"
quantity_kind = "Potency"
result = "inactive"

[[record]]
compound = "C#CCOC(=O)/C=C(C)/C=C/CC(C)CCCC(C)C (stereo not drawn)"
quantity_kind = "Potency"
result = "inactive"

[[record]]
compound = "CCn1cc[n+](C)c1C"
quantity_kind = "Potency"
result = "inactive"

[[record]]
compound = "CC(C)=CCN1CC[C@@]2(C)c3cc(O)ccc3C[C@@H]1[C@@H]2C"
quantity_kind = "Potency"
result = "inactive"

[[record]]
compound = "CC(=O)O"
quantity_kind = "Potency"
result = "inactive"

[[record]]
compound = "CC(C)(C)CC(C)(C)c1ccc(O)cc1"
quantity_kind = "Potency"
result = "34.7 µM (active)"

[[record]]
compound = "c1ccc2sc(SNC3CCCCC3)nc2c1"
quantity_kind = "Potency"
result = "inactive"

[[record]]
compound = "O=C(O)C(F)(F)C(F)(F)C(F)(F)C(F)(F)C(F)(F)C(F)(F)C(F)(F)C(F)(F)F"
quantity_kind = "Potency"
result = "inactive"

[[record]]
compound = "c1ccc(-c2cccc(-c3ccccc3)c2)cc1"
quantity_kind = "Potency"
result = "inactive"

[[record]]
compound = "CC(C)c1ccc(OP(=O)(Oc2ccc(C(C)C)cc2)Oc2ccc(C(C)C)cc2)cc1"
quantity_kind = "Potency"
result = "inactive"

[[record]]
compound = "CCCCC(CC)COC(=O)c1c(Br)c(Br)c(Br)c(Br)c1C(=O)OCC(CC)CCCC (stereo not drawn)"
quantity_kind = "Potency"
result = "inactive"

[[record]]
compound = "Cc1cnc[nH]1"
quantity_kind = "Potency"
result = "inactive"

